Several publications report Ki on Adenosine receptor A1 (Homo sapiens, UniProt P30542); those values are gathered here.
ENDPOINT_NAME: Ki (nM)

Solved cases below.
COc1ccc(-c2[nH]c(-c3ccccc3)nc3nc(C4CCCCC4)nc2-3)cc1 ... 3.7
Oc1c(-c2ccccc2)nnc2nc3ccccc3n12 ... 728
CCn1nnc([C@H]2O[C@@H](n3cnc4c(N)nc(N[C@H](C)Cc5ccc(OC)cc5)nc43)[C@H](O)[C@@H]2O)n1 ... 340
N#Cc1c(N)nc(SCCO)c(C#N)c1-c1cccc(O)c1 ... 12
COc1ccc(-n2cc3c(n2)c(NC(C)=O)nc2ccccc23)cc1 ... 2880
CCCN1C(=O)N2C[C@@H](C(C)C)N=C2c2[nH]c(C34CCC(CCC(=O)O)(CC3)CC4)nc21 ... 45
CCn1c(/N=C/c2ccc(Cl)cc2)c(C#N)sc1=S ... 19.8
COc1ccc(C(=O)Nc2ccc(-c3cn4c(=O)n(-c5ccccc5)nc4c(N)n3)cc2)cc1OC ... 98.8
COc1cccc(-c2n[nH]c(Cc3ccc4ccccc4c3)n2)c1 ... 2500
CCCC(=O)Nc1cc(-c2cccs2)nc(-c2cccs2)n1 ... 33.3

P = O=c1[nH]c(-c2ccco2)nc2scc(-c3ccco3)c12
Q = N#Cc1c(-c2ccc(Cl)cc2)cc(-c2ccco2)nc1N
Prompt: Smaller Ki value, P vs Q ? Write down the label of the entry you select.
Response: Q

---

Several publications report pKi on Adenosine receptor A1 (Homo sapiens, UniProt P30542); those values are gathered here.
pKi: −log10 of the molar value.
ENDPOINT_NAME: pKi

Solved cases below.
CCOCc1sc(NC(=O)c2ccco2)nc1-c1ccccc1 ... 7.04
CCOC(=O)C(CC(C)C)Nc1nc2nn(C)cc2c2nc(-c3ccco3)nn12 (racemic) ... 6.49

1 = C=CC(=O)Nc1ccc(-c2cn3c(=O)n(-c4ccccc4)nc3c(N)n2)cc1
2 = Cc1cnc(NC(=O)c2ccc(NC(=O)CC(C)(C)C)cc2)s1
Prompt: Smaller pKi value, 1 vs 2 ? Write down the label of the entry you select.
Response: 2

1 = Nc1nc(-c2ccc(NC(=O)c3cccc(S(N)(=O)=O)c3)cc2)cn2c(=O)n(-c3ccccc3)nc12
2 = N#Cc1c(N)nc(SCc2cccc(C(N)=O)c2)c(C#N)c1-c1ccc(OCC2CC2)cc1
Prompt: Smaller pKi value, 1 vs 2 ? Write down the label of the entry you select.
Response: 1

P = Cn1cc2c(nc(N3CCCCC3)n3nc(-c4ccco4)nc23)n1
Q = Nc1nc2nn(CCc3ccccc3)cc2c2nc(-c3ccc(F)cc3)nn12
Prompt: Smaller pKi value, P vs Q ? Write down the label of the entry you select.
Response: P
(P: 5.67, Q: 7.41)

---

Several publications report Ki on Adenosine receptor A1 (Homo sapiens); those values are gathered here.
ENDPOINT_NAME: Ki (nM)

Solved cases below.
CCN(CCO)c1nc2nn(C)cc2c2nc(-c3ccco3)nn12 ... 15000
CNC(=O)[C@H]1O[C@@H](n2cnc3c(NCc4cc(Cl)ccc4OCc4cc(C)no4)ncnc32)[C@H](O)[C@@H]1N ... 7300
Nc1nc(N2CCN(c3ccc(S(N)(=O)=O)cc3)CC2)nc2sc(-c3ccco3)nc12 ... 387
COC(=O)/C=C/c1cc(C)cc(-c2nc(NC(=O)c3cccnc3)sc2-c2ccncc2)c1 ... 1570
Cn1c(=O)c2c(nc3n2CCN(Cc2ccccc2)C3)n(C)c1=O ... 265
N#Cc1c(N)nc(SCc2csc(-c3ccc(Cl)cc3)n2)nc1-c1ccc(OCCO)cc1 ... 4.8
CS(=O)(=O)c1cccc2c(C(=O)NCc3cccc4cccnc34)nc(N)nc12 ... 4740
N#Cc1c(N)nc(SCc2cscn2)nc1-c1ccc2c(c1)OCO2 ... 9.7

P = CCCn1c(=O)c2[nH]c(-c3cnn(Cc4cccc(C)c4)c3)nc2n(CCC)c1=O
Q = CCNC(=O)[C@H]1O[C@@H](n2cnc3c(NNC(=O)c4ccco4)nc(Cl)nc32)[C@H](O)[C@@H]1O
R = CCN(C(C)=O)c1ccc(OC)c2nc(NC(=O)N3CCC(S(=O)(=O)c4cccc(C(F)(F)F)c4)CC3)sc12
Prompt: Reorder the items by Ki, least to greatest. When ranking, write the labels in the order the request describes.
Response: P, R, Q
(P: 48 nM, R: 690 nM, Q: 3500 nM)

A = N#Cc1c(N)nc(SCc2csc(-c3ccccc3F)n2)nc1-c1ccc2c(c1)OCO2
B = N#Cc1c(N)nc(SCc2csc(-c3ccc(C(F)(F)F)cc3)n2)nc1-c1ccc2c(c1)OCO2
Prompt: Smaller Ki value, A vs B ? Write down the label of the entry you select.
Response: A

1 = Cc1sc2nc(-c3sc(NC(=O)c4ccccc4)nc3-c3ccccc3)nc(N)c2c1C
2 = Cn1c(=O)c2[nH]c(-c3ccc(OCC(=O)N4CCc5ccccc5C4)cc3)cc2n(C)c1=O
Prompt: Lab note: record which item had the higher Ki, 1 or 2 . Write down the label of the entry you select.
Response: 1
(1: 7240 nM, 2: 363 nM)

A = Clc1cc(Cl)c2[nH]c(-c3cnc4ccccc4n3)nc2c1
B = C=CCOc1cccc(-c2nc(O)c3c4ccccc4c(=O)n(CC)n23)c1
Prompt: Lab note: record which item had the higher Ki, A or B . Write down the label of the entry you select.
Response: B
(B: 15.8 nM, A: 9.3 nM)

---

Target: Adenosine receptor A1 (Homo sapiens)
Sequence (P30542 whole entry): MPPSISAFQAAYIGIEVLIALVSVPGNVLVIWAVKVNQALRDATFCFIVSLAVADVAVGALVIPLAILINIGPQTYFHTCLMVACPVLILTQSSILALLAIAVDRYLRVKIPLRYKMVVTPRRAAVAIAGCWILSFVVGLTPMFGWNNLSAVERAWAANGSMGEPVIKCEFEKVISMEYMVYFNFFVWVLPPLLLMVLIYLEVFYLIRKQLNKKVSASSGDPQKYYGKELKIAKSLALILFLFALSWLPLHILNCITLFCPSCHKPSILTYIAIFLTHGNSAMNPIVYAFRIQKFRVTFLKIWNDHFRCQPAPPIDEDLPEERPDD
Several publications report Ki on Adenosine receptor A1 (Homo sapiens); those values are gathered here.
ENDPOINT_NAME: Ki (nM)

Solved cases below.
COc1cccc2cc(C(N)=O)c(=N)oc12 ... 398
N#Cc1c(N)nc(SCCO)c(C#N)c1-c1cccc(OC(F)F)c1 ... 40
Cn1cc2c(nc(NC(=O)Nc3cccc[n+]3[O-])n3nc(-c4ccco4)nc23)n1 ... 800
CN(CCO)C(=O)[C@H]1S[C@@H](n2cnc3c(NCc4cccc(I)c4)nc(Cl)nc32)[C@H](O)[C@@H]1O ... 237

a = O=C(Nc1nc(-c2ccccc2)c(-c2ncon2)s1)c1ccco1
b = CCCN1C(=O)N2C[C@@H](CC)N=C2c2[nH]c(C34CCC(CCC(=O)O)(CC3)CC4)nc21
c = C[C@@H](Nc1nc2nn(C)cc2c2nc(-c3ccco3)nn12)c1ccccc1
d = N#Cc1cccc(-c2nc(N)c3nc(-c4ccccc4)sc3n2)c1
e = CCCn1c(=O)[nH]c2nc(-c3cnn(Cc4cccc(F)c4)c3)[nH]c2c1=O
Prompt: Arrange the 5 molecules from largest to smallest Ki. When ranking, write the labels in the order the request describes.
Response: e, c, d, a, b

---

Several publications report pKi on the protein given by its sequence; those values are gathered here.
Target chain: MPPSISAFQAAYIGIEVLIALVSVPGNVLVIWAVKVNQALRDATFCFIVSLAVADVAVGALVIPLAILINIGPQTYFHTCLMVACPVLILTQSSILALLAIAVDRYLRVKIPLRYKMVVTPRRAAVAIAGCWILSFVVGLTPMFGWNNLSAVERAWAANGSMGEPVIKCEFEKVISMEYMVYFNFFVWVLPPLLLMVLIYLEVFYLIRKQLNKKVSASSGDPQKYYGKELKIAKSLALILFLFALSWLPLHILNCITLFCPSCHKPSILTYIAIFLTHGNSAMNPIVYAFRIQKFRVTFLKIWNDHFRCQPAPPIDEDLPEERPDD
pKi: −log10 of the molar value.
ENDPOINT_NAME: pKi

COc1ccc(NC(=O)Nc2nc3cn(CCc4ccccc4)cc3c3nc(-c4ccco4)nn23)cc1 ... 6.75
CN(Cc1ccccc1)c1nc2nn(C)cc2c2nc(-c3ccco3)nn12 ... 6.25
Cn1c(=O)c2[nH]c(-c3cnn(Cc4cccc(F)c4)c3)nc2n(C)c1=O ... 6.34
Cc1cc(C)nc(Nc2nc(-c3ccccc3)c3ccc(Cl)cc3n2)n1 ... 5.16
CCCC1C(=O)c2nc(CCCN3N=C(Cl)CCC3=O)[nH]c2N(C)C1=O (centres undefined) ... 5.92
CCCC(=O)Nc1nc(-c2ccc3c(c2)OCO3)cc(-c2ccc3c(c2)OCO3)n1 ... 6.17
CNc1nc(-n2cc(-c3nc4ccccc4o3)cn2)nc2c1ncn2C1O[C@H](CO)[C@@H](O)[C@H]1O (some centres undefined) ... 5.59
CCCCCNc1ncc(C(=O)OCC)c2nc(-c3ccco3)nn12 ... 6.21

P = COC(=O)c1cccc(CSc2nc(N)c(C#N)c(-c3ccoc3)c2C#N)c1
Q = CCNC(=O)[C@H]1O[C@@H](n2cnc3c(Nc4ccc(OCC(=O)Nc5ccc(C(C)(C)C)cc5)cc4)ncnc32)[C@H](O)[C@@H]1O
R = CC1C(=O)c2nc(CCCN3N=C(c4ccccc4)CCC3=O)[nH]c2N(C)C1=O (centres undefined)
Prompt: Reorder the items by pKi, least to greatest. When ranking, write the labels in the order the request describes.
Response: R, Q, P

1 = CNC(=O)[C@@]12C[C@@H]1[C@@H](n1cnc3c(NCC4CC4)nc(-n4cc(-c5ccc(Cl)s5)nn4)nc31)[C@H](O)[C@@H]2O
2 = CCCn1c(=O)c2[nH]c(-c3cnn(Cc4nc(-c5cccc(Cl)c5)no4)c3)nc2n(CCC)c1=O
3 = Cc1nc2c(=S)n(Cc3ccccc3)nc(-c3ccncc3)c2c2cc(-c3ccccc3)nn12
Prompt: Arrange the 3 compounds from largest to smallest pKi. When ranking, write the labels in the order the request describes.
Response: 3, 2, 1
(3: 6.57, 2: 6.19, 1: 5.87)
